Sourced from ChEMBL document CHEMBL3580590

# Test system: Plasmodium falciparum
# test.summary: Antimalarial activity against Plasmodium falciparum 3D7A infected in red blood cells assessed as inhibition of parasite growth after 24 hrs by [3H]hypoxanthine incorporation assay
# Format: functional, organism-based
Define the label as satisfied when IC50 is strictly less than 2000 nM and as not satisfied in all remaining cases.

# line.notation, group
rows = [
    ("O=C(NCCCNc1nc2ccccc2[nH]1)c1ccc(Cl)c(Cl)c1", "satisfied"),
    ("N#Cc1ccc(C(=O)NCCCNc2nc3ccccc3[nH]2)cc1F", "satisfied"),
    ("O=C(NCCCCNc1nc2ccccc2[nH]1)c1cc(Cl)cc(Cl)c1", "satisfied"),
]

Query: Strictly below 2000 nM in IC50? O=C(NCCCNc1nc2ccccc2[nH]1)c1ccc(Cl)cc1Cl
Response: not satisfied

Query: Strictly below 2000 nM in IC50? O=C(NCCCNc1nc2ccccc2[nH]1)C1CCOCC1
Response: not satisfied

Query: Strictly below 2000 nM in IC50? CN(CCCNC(=O)c1cc(Cl)cc(Cl)c1)c1nc2ccccc2[nH]1
Response: satisfied

Query: Strictly below 2000 nM in IC50? O=C(NCCNc1nc2ccccc2[nH]1)c1cc(Cl)cc(Cl)c1
Response: satisfied

Query: Strictly below 2000 nM in IC50? O=C(O)c1cccc(C(=O)NCCCNc2nc3ccccc3[nH]2)c1
Response: not satisfied

Query: Strictly below 2000 nM in IC50? O=C(NCC1(CNc2nc3ccccc3[nH]2)CC1)c1cc(Cl)cc(Cl)c1
Response: satisfied

Query: Strictly below 2000 nM in IC50? O=C(NCCCNc1nc2ccccc2[nH]1)c1c(Cl)cccc1Cl
Response: not satisfied

Query: Strictly below 2000 nM in IC50? O=C(NCCCNc1nc2ccccc2[nH]1)c1cccc(Cl)c1Cl
Response: not satisfied
